B1: HDV Ribozyme (parent)
chain: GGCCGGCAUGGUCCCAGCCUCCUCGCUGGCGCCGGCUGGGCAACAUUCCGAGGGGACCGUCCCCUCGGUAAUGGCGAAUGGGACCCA

- Variants of: B1
- assay.explanation: self-cleavage, relative activity (ratio to wild type); higher = more cleavage; co-transcriptional
property.measured: self-cleavage

[[record]]
mutation_code = "A51G G59A"
value_measured = 0.787

[[record]]
mutation_code = "G28C C33A"
value_measured = 0.106

[[record]]
mutation_code = "G40U C48U"
value_measured = 0.628

[[record]]
mutation_code = "C33G C64A"
value_measured = 0.213

[[record]]
mutation_code = "C15A C33G"
value_measured = 0

[[record]]
mutation_code = "C4A U37G"
value_measured = 0

[[record]]
mutation_code = "G28A U60C"
value_measured = 0.0811

[[record]]
mutation_code = "G25U G55C"
value_measured = 0.228

[[record]]
mutation_code = "G31U C36A"
value_measured = 0.106

[[record]]
mutation_code = "G2U C7A"
value_measured = 0.013

[[record]]
mutation_code = "C15G U65G"
value_measured = 0.886

[[record]]
mutation_code = "G38A U69G"
value_measured = 0.166

